In this section we review reported Benzidine positive cells values for a set of compounds.
# System: Erythroleukemia cell line
# protocolDescription: Percentage of benzidine-positive murine erythroleukemia cells on day 6.
# Format: functional, Mus musculus

compound: CC(=O)N1CCCCCC1=O
Benzidine positive cells: 53%

compound: CC(=O)N1CCCCC1=O
Benzidine positive cells: 86%

compound: CCN1CCCC1=O
Benzidine positive cells: 90%

compound: CC(=O)N(C)C
Benzidine positive cells: 84%

compound: CCCCn1ccccc1=O
Benzidine positive cells: 76%

compound: O=C(Nc1ccccn1)c1ccccn1
Benzidine positive cells: 33%

compound: CNC(=O)c1ccccn1
Benzidine positive cells: 60%

compound: CC(=O)NC1CCCCC1
Benzidine positive cells: 92%

compound: CN1CCCCCC1=O
Benzidine positive cells: 90%

compound: CNC(C)=O
Benzidine positive cells: 90%

compound: CC(=O)Nc1ccccn1
Benzidine positive cells: 85%

compound: Cn1ccccc1=O
Benzidine positive cells: 89%

compound: CC(=O)N1CCCC1
Benzidine positive cells: 60%

compound: CC(C)n1ccccc1=O
Benzidine positive cells: 90%

compound: CNC(=O)c1ccccc1
Benzidine positive cells: 62%

compound: CC(=O)N1CCCC1=O
Benzidine positive cells: 73%

compound: CCN1CCCCC1=O
Benzidine positive cells: 87%

compound: CCCCCCn1ccccc1=O
Benzidine positive cells: 58%

compound: CC(=O)Nc1ccccc1 [ACETANILIDE]
Benzidine positive cells: 71%

compound: CC(=O)N1CCCCC1
Benzidine positive cells: 85%

compound: CC(=O)N(c1ccccn1)c1ccccn1
Benzidine positive cells: 36%

compound: O=C1CCCN1 [2-PYRROLIDONE]
Benzidine positive cells: 89%

compound: O=C1CCCCN1
Benzidine positive cells: 64%

compound: CCN1CCCCCC1=O
Benzidine positive cells: 96%

compound: CC(=O)Nc1cccnc1
Benzidine positive cells: 86%

compound: Oc1ccccn1
Benzidine positive cells: 95%

compound: CCCn1ccccc1=O
Benzidine positive cells: 82%

compound: CNC(=O)c1cccnc1 [NICOTINYL METHYLAMIDE]
Benzidine positive cells: 93%

compound: O=C(Nc1ccccn1)C(F)(F)F
Benzidine positive cells: 69%

compound: CC(=O)Nc1ccncc1
Benzidine positive cells: 34%

compound: CN1CCCCC1=O
Benzidine positive cells: 89%

compound: CN1CCCC1=O [METHYLPYRROLIDONE]
Benzidine positive cells: 87%

compound: CCn1ccccc1=O
Benzidine positive cells: 86%

compound: O=C(CCl)Nc1ccccn1
Benzidine positive cells: 83%

compound: O=C1CCCCCN1 [CAPROLACTAM]
Benzidine positive cells: 82%
